- SUBJECT_OF_TEST: human TNFα R131Q mutant (human, UniProt P01375 77-233)
- Sequence (P01375 77-233 R207Q): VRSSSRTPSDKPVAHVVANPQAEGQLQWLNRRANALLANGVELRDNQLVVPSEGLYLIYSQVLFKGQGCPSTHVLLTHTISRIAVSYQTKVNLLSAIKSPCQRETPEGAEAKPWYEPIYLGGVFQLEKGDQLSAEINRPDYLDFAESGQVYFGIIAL
- TEST_NAME: ELISA on chimeric/mutant TNFα
PROPERTY_MEASURED: binding result

[[record]]
binder = "263 (antibody, human IgG1, V domains shown, XENOMAX derived, recombinant human IgG1 kappa; also called SC263) VH: EVQLVESGGGLIQPGGSLRLSCAASGFTVSRNYMSWVRQAPGKGLEWVSVIYSGDRTYYADSVKGRFTISRDNSKNTLYLQMNSLRAEDTAVYYCARGEGGFDYWGQGTLVTVSS VL: EIVMTQSPATLSVSPGERATLSCRASQSVSSNLAWYQQKPGQAPRLLIHGASIRATGLPARFSGSGSGTEFTLTISSLQSEDFAVYYCQQYNYWWTFGQGTKVEIK"
observed_result = "binds"

